test system: MRCKB; construct: gene CDC42BPB; conditions: concentration: 1 μM, replicates: in singlicate; n = 1;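 further: KINOMEscan kinase panel screen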
measure name: %Inh (%)
Report as a plain number; the unit % is understood.

Observe how each entry below is paired with its result.
CNc1nccc(-c2ccc3c(N)n[nH]c3c2)n1
0
COc1cccc(NC(=O)NCCNc2ccnc(Nc3ccc(F)cc3)n2)c1
3
Cc1ccc(NC(=O)c2ccc(Cl)c(Cl)c2)cc1-c1ccc(C(=O)Nc2ccncc2)cc1
32

Next up:
Q: Query %Inh on MRCKB for CSc1ccc(NC2=C(c3ccc(Cl)cc3)C(=O)NC2=O)cc1
A: 0

---

// %Inh lookup, one value per entry
system: CAMK4; settings: concentration: 1 μM, replicates: in singlicate; n = 1
Report as a plain number; the unit % is understood.

Observe how each entry below is paired with its result.
O=C(Nc1n[nH]c2nc(-c3ccccc3)ccc12)C1CC1
0
COc1cc(Nc2nccc(N3CCC(NC(=O)Nc4ccc5c(c4)OCO5)C3)n2)cc(OC)c1OC (stereo not shown)
0
O=C(Nc1c(F)cccc1F)c1cc(C(=O)c2ccccc2F)c[nH]1
5
CCNC(=O)/C=C/c1n[nH]c2cc(Sc3ccccc3C(=O)NC)ccc12
0
CN(C)c1ncnc2nc[nH]c12
0
COc1ccc(NC(=O)c2ccoc2)cc1-c1ccc(C(=O)NCC2CC2)cc1
19

Next up:
Q: Which %Inh reading was recorded for the compound N#Cc1cnc2cc(-c3cnc(CNCCN4CCOCC4)s3)ccc2c1Nc1ccc(Oc2ccccc2)cc1 ?
A: 0
